System: basal glucose transport in A549 cells
experimental.details: standard glucose uptake assay in A549 lung cancer cells
Assay type: cell-based
protocol.conditions: Homo sapiens, DMSO treated cells as negative control
recorded.endpoint: inhibition at 30 µM (%)
Expressed in %, but write only the number.

molecule	inhibition at 30 µM, %
COc1cccc(C(CO)Oc2cc(Cl)ccc2OCc2cccc(O)c2)c1 (stereo not drawn)	34.8
Oc1cccc(COc2cccc(F)c2OCc2cccc(O)c2)c1 [WZB-134, reference compound]	96
OCC(Oc1ccc(Cl)cc1OCc1cccc(O)c1)c1cccc(O)c1 (stereo not drawn)	62.8
COC(=O)C(Oc1ccc(Cl)cc1OCc1cccc(O)c1)c1cccc(O)c1 (stereo not drawn)	56.1
COC(=O)C(Oc1cc(Cl)ccc1OCc1cccc(O)c1)c1cccc(O)c1 (stereo not drawn)	54.3

Next item in the queue.
Field inhibition at 30 µM (entry COC(=O)C(Oc1cc(Cl)ccc1OCc1cccc(O)c1)c1cccc(OC)c1 (stereo not drawn) ) reads 19.7

This collection of values is drawn from patent US10647654B2.
